Test system: NOMO1
Assay: cell viability relative to DMSO control; higher = less cytotoxic
Conditions: RPMI 5 mM glucose + 10% FBS; 48 h; 15.4 µM
Please use label 1 for cell viability under 80% and label 0 for everything else, ties included.

Does this compound meet the criterion cell viability < 80%? C[C@H]1CCC/C=C/C2C[C@H](O)C[C@H]2[C@H](O)/C=C/C(=O)O1 (stereo partly drawn)
label 1

Does this compound meet the criterion cell viability < 80%? O=P(O)(O)C(O)(Cc1cccnc1)P(=O)(O)[O][Na] (stereo not drawn)
label 0

Does this compound meet the criterion cell viability < 80%? CN(C)c1ccc(C(=O)NCCCCCCC(=O)NO)cc1
label 1

Does this compound meet the criterion cell viability < 80%? CN(C(=O)c1ccc(F)cc1C(F)(F)F)C1CCN(c2nnc(-c3ccnn3C)c3ccccc23)CC1
label 1

Does this compound meet the criterion cell viability < 80%? CC1(C)O[C@H]2CC(=O)OC[C@]23[C@H]2CC[C@@]4(C)[C@H](c5ccoc5)OC(=O)[C@H]5O[C@]54[C@]2(C)C(=O)C[C@@H]13
label 0

Does this compound meet the criterion cell viability < 80%? COc1ccc2cc(-c3[nH]c(-c4ccc([S+](C)[O-])cc4)nc3-c3ccncc3)ccc2c1 (stereo not drawn)
label 0

Does this compound meet the criterion cell viability < 80%? COC(=O)N[C@H](C(=O)N[C@@H](Cc1ccccc1)[C@@H](O)CN(Cc1ccc(-c2ccccn2)cc1)NC(=O)[C@@H](NC(=O)OC)C(C)(C)C)C(C)(C)C
label 0

Does this compound meet the criterion cell viability < 80%? CN(C)CCC=C1C2=C(C=CC=C2)\C=C/C3=C1C=CC=C3
label 1

Does this compound meet the criterion cell viability < 80%? C[C@H]([C@H]1C\C(=C(CO)/C(=O)O1)C)[C@H]2CC[C@H]3[C@@H]4C[C@H]5O[C@]56[C@@H](O)\C=C/C(=O)[C@]6(C)[C@H]4CC[C@]23C
label 1

Does this compound meet the criterion cell viability < 80%? CCC1=C(C)CN(C(=O)NCCc2ccc(S(=O)(=O)NC(=O)N[C@H]3CC[C@H](C)CC3)cc2)C1=O
label 0

Does this compound meet the criterion cell viability < 80%? COc1cc2nc(-c3ccc(N4CCN(C)CC4)cc3)nc(NCCN3CCOCC3)c2cc1OC
label 1

Does this compound meet the criterion cell viability < 80%? NC/1=N/C(=O)N(/C=C1)[C@H]2CC[C@@H](CO)O2
label 0

Does this compound meet the criterion cell viability < 80%? COc1cc2c(NC3CCN(C(C)C)CC3)nc(C3CCCCC3)nc2cc1OCCCN1CCCC1
label 0

Does this compound meet the criterion cell viability < 80%? CN(C)c1nc(N(C)C)nc(N(C)C)n1
label 0

Does this compound meet the criterion cell viability < 80%? COc1ccc(CCC(=O)Nc2nc3ccc(Cl)cc3s2)cc1OC
label 0

Does this compound meet the criterion cell viability < 80%? CN[C@@H](C)C(=O)N[C@H]1CCCC[C@H]2CC[C@@H](C(=O)N[C@@H](c3ccccc3)c3cn(CCCCc4ccc(CCCCn5cc([C@@H](NC(=O)[C@@H]6CC[C@@H]7CCCC[C@H](NC(=O)[C@H](C)NC)C(=O)N76)c6ccccc6)nn5)cc4)nn3)N2C1=O
label 1

Does this compound meet the criterion cell viability < 80%? CC1=C(/C=C/C(C)=C/C=C/C(C)=C/C(=O)Nc2ccc(O)cc2)C(C)(C)CCC1
label 1

Does this compound meet the criterion cell viability < 80%? O=C(c1ccc(F)cc1)C1CCN(CCn2c(=O)[nH]c3ccccc3c2=O)CC1
label 0

Does this compound meet the criterion cell viability < 80%? Cc1cnc(Nc2ccc(OCCN3CCCC3)cc2)nc1Nc1cccc([S+](=O)([O-])NC(C)(C)C)c1
label 0

Does this compound meet the criterion cell viability < 80%? N=C(N)c1ccc(OCCCCCOc2ccc(C(=N)N)cc2)cc1
label 0

Does this compound meet the criterion cell viability < 80%? O=C1c2cccc(O)c2C(=O)c2c(O)cc(CO)cc21
label 0

Does this compound meet the criterion cell viability < 80%? CCOC(=O)c1ccc(C#Cc2ccc3c(c2)C(C)(C)CCS3)nc1
label 0

Does this compound meet the criterion cell viability < 80%? CC1OC(OC/2=C(/OC3=C(C(=CC(=C3)O)O)C2=O)C4=CC=C(O)C=C4)C(O)C(OC(C)=O)C1OC(C)=O (stereo not drawn)
label 0

Does this compound meet the criterion cell viability < 80%? CC1(C)OC/2=C(\[C@H](NCC3=CC=CC=C3)[C@@H]1O)C(=O)C4=CC=CC=C4C2=O
label 1

Does this compound meet the criterion cell viability < 80%? C[C@H]1[C@@H](CC(C[C@H]2O[C@@H]3O[C@]4(C)CC[C@H]5[C@H](C)CC[C@@H]([C@H]2C)[C@@]35OO4)C[S+](=O)([O-])c2ccc(COC(=O)N(C)C)cc2)O[C@@H]2O[C@]3(C)CC[C@H]4[C@H](C)CC[C@@H]1[C@@]24OO3
label 1

Does this compound meet the criterion cell viability < 80%? CCOP(=O)(OCC)C(C)NC(=O)N(CCCl)N=O (stereo not drawn)
label 0

Does this compound meet the criterion cell viability < 80%? CC1=CC2=C(O1)C(=C3OC(=O)\C=C(C)/C3=C2)C
label 0

---

Hi there, I'd appreciate the recorded cell viability for every entry that follows.
System: SEM cells
Assay: cell viability relative to DMSO control; higher = less cytotoxic
Settings: RPMI 5 mM glucose + 10% FBS; 48 h; 0.00702 µM
Report as a plain number; the unit % is understood.

Just so you know, measured cell viability for Cc1nc2c([nH]1)-c1ccccc1N(C(=O)c1ccc(NC(=O)c3ccccc3-c3ccccc3)cc1)CC2 came out at 100

Just so you know, measured cell viability for O=C(c1ccc(F)cc1)C1CCN(CCn2c(=O)[nH]c3ccccc3c2=O)CC1 came out at 126

Just so you know, measured cell viability for CNC(=O)c1c(F)cccc1Nc1nc(Nc2cc3c(cc2OC)CCN3C(=O)CN(C)C)nc2[nH]ccc12 came out at 83.2

Just so you know, measured cell viability for CN(C)C(=O)COC(=O)Cc1ccc(OC(=O)c2ccc(NC(=N)N)cc2)cc1 came out at 126

Just so you know, measured cell viability for c1ccc2c(Oc3nc(Nc4ccc(N5CCOCC5)cc4)c4ncn(C5CCCCC5)c4n3)cccc2c1 came out at 138

Just so you know, measured cell viability for COc1ccc2cccc(CCNC(C)=O)c2c1 came out at 107

Just so you know, measured cell viability for CCC(=O)O[C@@]1([C@H](C)C[C@H]2[C@@H]3C[C@H](F)\C4=C\C(=O)\C=C/[C@]4(C)[C@@]3(F)[C@@H](O)C[C@]12C)C(=O)SCF came out at 88.6

Just so you know, measured cell viability for CNC(=O)c1cc(Oc2ccc(NC(=O)Nc3cc(C(C)(C)C)nn3-c3ccc4ncccc4c3)c(F)c2)ccn1 came out at 107

---

System: NOMO1
Assay: cell viability relative to DMSO control; higher = less cytotoxic
Details: RPMI 5 mM glucose + 10% dialyzed FBS; 48 h; 1.71 µM
Hi there, I'd appreciate the recorded cell viability for every entry that follows.
Report as a plain number; the unit % is understood.

Just so you know, measured cell viability for C[C@@]12OC(=O)[C@@]1(NC(=O)[C@@H]2CCCl)[C@@H](O)[C@H]\3CCC\C=C3 came out at 5.88

Just so you know, measured cell viability for OC1=C(C=CC=C1)C2=CC=C(C=C2)C3=CSC4=C3C(=C(/C#N)C(=O)N4)/O came out at 119

Just so you know, measured cell viability for N=C(N)c1ccc(OCCCCCOc2ccc(C(=N)N)cc2)cc1 came out at 98.6

Just so you know, measured cell viability for Nc1ccc([S+](=O)([O-])Nc2ccccn2)cc1 came out at 130

Just so you know, measured cell viability for N/C(=N\C(=O)c1nc(Cl)c(N)nc1N)NCc1ccccc1 came out at 111

Just so you know, measured cell viability for O=C1[O][Pt]2([NH]C3CCCCC3[NH]2)[O]C1=O (stereo not drawn) came out at 112

Just so you know, measured cell viability for NC/1=N/C(=O)N(/C=C1)[C@H]2CC[C@@H](CO)O2 came out at 95.9

Just so you know, measured cell viability for NC\1=N\C(=O)N(\C=N1)[C@H]2C[C@H](O)[C@@H](CO)O2 came out at 96.7

Just so you know, measured cell viability for COc1ccc2cccc(CCNC(C)=O)c2c1 came out at 90.2

Just so you know, measured cell viability for CC1=C(/C=C/C(C)=C/C=C/C(C)=C/C(=O)Nc2ccc(O)cc2)C(C)(C)CCC1 came out at 85.5

Just so you know, measured cell viability for COc1cc(/C=C/C(=O)CC(=O)/C=C/c2ccc(O)c(OC)c2)ccc1O came out at 104

Just so you know, measured cell viability for COc1ccc(-c2c(-c3ccc(O)cc3O)n[nH]c2C)cc1 came out at 99.1

Just so you know, measured cell viability for COc1ccc(CCC(=O)Nc2nc3ccc(Cl)cc3s2)cc1OC came out at 102

Just so you know, measured cell viability for CN(C)c1nc(N(C)C)nc(N(C)C)n1 came out at 89.4

Just so you know, measured cell viability for COc1cc2ncnc(Nc3ccc(F)c(Cl)c3)c2cc1OCCCN1CCOCC1 came out at 109

Just so you know, measured cell viability for CCCCc1oc2ccc(NS(C)(=O)=O)cc2c1C(=O)c1ccc(OCCCN(CCCC)CCCC)cc1 came out at 66

Just so you know, measured cell viability for Cc1cc(SCc2sc(-c3ccc(C(F)(F)F)c(F)c3)nc2C)ccc1OCC(=O)O came out at 94

Just so you know, measured cell viability for CC1=C2N=C([NH]C2=CC(=C1)N3CCOCC3)\C4=C(NC[C@@H](O)C5=CC=CC(=C5)Cl)\C=C/NC4=O came out at 67.1

Just so you know, measured cell viability for CC(=O)SCC(Cc1ccccc1)C(=O)NCC(=O)OCc1ccccc1 (stereo not drawn) came out at 76.8

Just so you know, measured cell viability for CC(Oc1ccc(O)cc1)(P(=O)(O)O)P(=O)(O)O came out at 91

Just so you know, measured cell viability for CC1=C(C)C2=C(S1)[N]3C(=NN=C3[C@H](CC(=O)OC(C)(C)C)/N=C2/C4=CC=C(Cl)C=C4)C came out at 55.3

Just so you know, measured cell viability for COc1cc2nc(-c3ccc(N4CCN(C)CC4)cc3)nc(NCCN3CCOCC3)c2cc1OC came out at 28.3

Just so you know, measured cell viability for COC1=CC=C(C=C1)C/2=C/OC3=CC(=CC=C3C2=O)O came out at 105

Just so you know, measured cell viability for O=C1c2cccc(O)c2C(=O)c2c(O)cc(CO)cc21 came out at 79.7

Just so you know, measured cell viability for CN1C(=O)COc2c(C(=O)NC3CN4CCC3CC4)cc(Cl)cc21 (stereo not drawn) came out at 89.7

Just so you know, measured cell viability for CC1(C)O[C@H]2CC(=O)OC[C@]23[C@H]2CC[C@@]4(C)[C@H](c5ccoc5)OC(=O)[C@H]5O[C@]54[C@]2(C)C(=O)C[C@@H]13 came out at 110

Just so you know, measured cell viability for c1ccc(-c2nn3c(c2-c2ccnc4cc(OCCN5CCOCC5)ccc24)CCC3)nc1 came out at 101

Just so you know, measured cell viability for O=C(NC1CC1)c1cccc(-c2ccc3c(NC(=O)C4CC4)n[nH]c3c2)c1 came out at 122
